Reference for the values: paper PMC4447949

System Under Test: Etv1 Y395F (human, UniProt P50549 326-429, Y395F)
Sequence (P50549 326-429 Y395F): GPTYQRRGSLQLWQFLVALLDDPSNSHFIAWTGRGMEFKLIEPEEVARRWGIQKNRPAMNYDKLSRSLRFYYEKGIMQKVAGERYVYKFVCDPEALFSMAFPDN
Test: EMSA; 2 nM probe; 10 mM TCEP; saturates at 60% of probe; EMSA: 50 mM Tris-HCl pH 7.5, 50 mM NaCl, 2 mM MgCl2, 0.01% Tween 20, 5% glycerol, 1 h at room temperature; proteins reduced with 10 mM TCEP unless stated; 10% native PAGE
Condition Label: protein: recombinant; tags: N-terminal His6 removed by TEV (leaves SM); blunt
Reported Metric: pKd
Please keep in mind that pKd is minus log10 of the molar concentration; only the number is needed.

## Input Any idea what pKd was measured for Etv1ALF/Etv1ALR EMSA probe (dsDNA) DNA 1: ATCTCACCGGAAGTGTAGCA DNA 2: TGCTACACTTCCGGTGAGAT ?
## Output 9.64
